system: Plasmodium berghei; assay: Screen against P. berghei liver stage (PbLuc), transformed with Luciferase, at 2uM; assay type: functional, HepG2; conditions: tested at 2 uM
In all, about 68,000 compounds went through this assay and about 2,700 (4%) showed an effect of 50% or more. For the sample, strong results were picked, then their nearest neighbours and some compounds at random.
Listed below: INHIBITION values for each entry.

molecule: Cc1n[nH]c(C2CN(C(=O)c3cc(C)sc3C)CCO2)n1 (configuration not stated)
testedTarget: Plasmodium berghei
INHIBITION, %: 40.13

molecule: Cc1cnn(CC2CCCCN2C(=O)c2ccccc2-n2cccn2)c1 (configuration not stated)
testedTarget: Plasmodium berghei
INHIBITION, %: 37.68

molecule: O=C(C1CCOCC1)N1CCC2(CC1)CN(c1ccsc1)C(=O)CO2
testedTarget: Plasmodium berghei
INHIBITION, %: -17.15

molecule: CN(C)C(=O)Cc1ccccc1NCc1noc(-c2ccccc2)n1
testedTarget: Plasmodium berghei
INHIBITION, %: 22.19

molecule: CSCc1cccc(NC(=O)N2CCC(N3CC=CC3)C2)c1 (configuration not stated)
testedTarget: Plasmodium berghei
INHIBITION, %: -18.09

molecule: CNC(=O)CN1CCN(C(=O)c2ccn(C)c(=O)c2)CC1
testedTarget: Plasmodium berghei
INHIBITION, %: -16.28

molecule: Cc1nc(N)cc(N2CCCC(COc3cccc(F)c3)C2)n1 (configuration not stated)
testedTarget: Plasmodium berghei
INHIBITION, %: 59.8

molecule: CCCN(Cc1nccn1C)C(=O)C(CC)Nc1cccc(OC)c1 (configuration not stated)
testedTarget: Plasmodium berghei
INHIBITION, %: 16.82

molecule: Cc1cc(C(O)CCNC(=O)c2ccc(Cl)s2)c(C)o1 (configuration not stated)
testedTarget: Plasmodium berghei
INHIBITION, %: -16.88

molecule: Cc1cccnc1CN1CCOC(Cc2cccc3ccccc23)C1 (configuration not stated)
testedTarget: Plasmodium berghei
INHIBITION, %: 31.05

molecule: O=C(O)C(c1ccc2c(c1)OCO2)N1CCCC1 (configuration not stated)
testedTarget: Plasmodium berghei
INHIBITION, %: 4.53

molecule: COCCN1CCC2(CCN(C(=O)c3ccc(F)cc3)CC2)C1=O
testedTarget: Plasmodium berghei
INHIBITION, %: 4.59

molecule: COc1c(CNC2CCOc3c(Cl)cccc32)c(C)nn1C (configuration not stated)
testedTarget: Plasmodium berghei
INHIBITION, %: 24.64

molecule: OC1(Cn2ccc3ncccc32)CCN(Cc2ccccc2F)CC1
testedTarget: Plasmodium berghei
INHIBITION, %: 22.81

molecule: COc1cccc(CN2CCCC(c3nn(C)c4nccnc34)C2)c1 (configuration not stated)
testedTarget: Plasmodium berghei
INHIBITION, %: 22.81

molecule: COCCS(=O)(=O)Nc1ccc(-n2cncn2)c(F)c1
testedTarget: Plasmodium berghei
INHIBITION, %: 3.33

molecule: Cc1ccc(F)c(C(=O)N2C[C@@H](C(=O)O)[C@H](c3ccccc3)C2)c1Cl
testedTarget: Plasmodium berghei
INHIBITION, %: 16.49

###

system: Plasmodium berghei; assay: Screen against P. berghei liver stage (PbLuc), transformed with Luciferase, at 2uM; assay type: functional, HepG2; settings: tested at 2 uM
Among all 68,000 compounds or so, about 2,700 (4%) showed an effect of 50% or more. Shown is part of a subset that was picked to be rich in strong results.
In this section we review reported INHIBITION values for a set of compounds.

compound: COC(=O)CC1CSCCN1C(=O)CCc1c(C)nn(C)c1C (stereo unspecified)
readoutUnits: %
INHIBITION: 26.7
--
compound: Cc1nccn1CCC1CCCCN1Cc1cnc(N(C)C)nc1 (stereo unspecified)
readoutUnits: %
INHIBITION: -4.51
--
compound: O=C(Cc1csc(-c2ccoc2)n1)NCCC(=O)N1CCCCC1
readoutUnits: %
INHIBITION: 45.56
--
compound: c1cc(-c2nnn3c2COC(CNCc2nccs2)C3)ccn1 (stereo unspecified)
readoutUnits: %
INHIBITION: 16.87
--
compound: C[C@H](O)CNc1cc(-c2ccccc2)ncn1
readoutUnits: %
INHIBITION: 59.56
--
compound: COc1ccc(C(=O)NC2CC2)c(OC2CCN(C(C)CO)CC2)c1 (stereo unspecified)
readoutUnits: %
INHIBITION: -8.53
--
compound: COc1ccccc1N1CCN(C(=O)c2ccoc2)CC1
readoutUnits: %
INHIBITION: -2.44
--
compound: OCCNc1cc(-c2ccccc2)ncn1
readoutUnits: %
INHIBITION: -7.01
--
compound: CC(C)c1nccn1C1CCCN(C(=O)CCc2cscn2)C1 (stereo unspecified)
readoutUnits: %
INHIBITION: 21.39
--
compound: CN(C)c1ccc(C(=O)N2CCN(Cc3cscn3)CC2)cn1
readoutUnits: %
INHIBITION: 19.18
--
compound: COc1c(C)cnc(CN2CCCC2c2noc(C)n2)c1C (stereo unspecified)
readoutUnits: %
INHIBITION: 4.87
--
compound: Cc1ccc(CN(Cc2ccccn2)C(=O)CCC2CCCN(C)C2)s1 (stereo unspecified)
readoutUnits: %
INHIBITION: 50.59
--
compound: c1cnn(CC2CCCN2c2ncnc3ccsc23)c1 (stereo unspecified)
readoutUnits: %
INHIBITION: -16.42
--
compound: CC1CCCN(CCCNC(=O)Cc2csc(-c3ccoc3)n2)C1 (stereo unspecified)
readoutUnits: %
INHIBITION: 50.61
--
compound: COc1cc(OCC(=O)NCCc2ccccc2)cc(OC)c1OC
readoutUnits: %
INHIBITION: 28.85
--
compound: Cc1cc(CN2CCC(CNC(=O)Cc3ccc(F)cc3)C2)[nH]n1 (stereo unspecified)
readoutUnits: %
INHIBITION: -73.43
--
compound: CC(NC(=O)COc1ccccc1I)C1CC1 (stereo unspecified)
readoutUnits: %
INHIBITION: -3.87
--
compound: CC1CCN(C(=O)[C@@H]2C[C@H]3OCC[C@H]3N(Cc3ccoc3)C2)CC1
readoutUnits: %
INHIBITION: 23.1
--
compound: Cc1cc(NC(=O)CN(C)CC2CCCN2c2cccnn2)n(C)n1 (stereo unspecified)
readoutUnits: %
INHIBITION: 51.03
--
compound: CC(=O)Nc1ccc(-n2cncn2)c(F)c1
readoutUnits: %
INHIBITION: 8.5
--
compound: CCC[C@@H]1CN(Cc2c[nH]nc2-c2ccc(OC)cc2)C[C@H]1NC(C)=O
readoutUnits: %
INHIBITION: 42.4
--
compound: Cc1cccc(CN2CC3(CCN(Cc4ccoc4)CC3)OCC2=O)n1
readoutUnits: %
INHIBITION: 11.99
--
compound: Cc1ccc(C(=O)N2CCC3(CC2)CCN(CCN(C)C)C3=O)cn1
readoutUnits: %
INHIBITION: 39.92
--
compound: COC[C@@H]1CCC[C@@]12CN(Cc1ccco1)CCO2
readoutUnits: %
INHIBITION: 18.4
--
compound: CNC(=O)[C@H]1C[C@@H]2CN(S(=O)(=O)c3ccccc3)C[C@@H]2N1C(C)=O
readoutUnits: %
INHIBITION: 5.52
--
compound: Cc1ccc(N2CC3(COCCN(Cc4cccnc4)C3)OCC2=O)s1 (stereo unspecified)
readoutUnits: %
INHIBITION: -5.44

###

test system: Plasmodium berghei; test: Screen against P. berghei liver stage (PbLuc), transformed with Luciferase, at 2uM; assay type: functional, HepG2; details: tested at 2 uM
Among all 68,000 compounds or so, about 2,700 (4%) showed an effect of 50% or more. The sample as a whole holds a higher share of strong results than the screen did.

compound: CCc1nc2ccccc2c(=O)n1CC1(O)CCN(C(=O)C2CC2)CC1
testedTarget: Plasmodium berghei
INHIBITION, %: 29.89
--
compound: CC(=O)NCCC1CCCCN1S(=O)(=O)c1cccc(C#N)c1 (centres undefined)
testedTarget: Plasmodium berghei
INHIBITION, %: -7.53
--
compound: O=C(c1ccc(F)cc1)N1CCC2(CCCN2CC2CC2)CC1
testedTarget: Plasmodium berghei
INHIBITION, %: -38.96
--
compound: CC(C)C1CN(C(=O)c2cc(F)cc3[nH]cnc23)CCS1 (centres undefined)
testedTarget: Plasmodium berghei
INHIBITION, %: 11.24
--
compound: Cc1ccc2nc(C3CCN(CC4CC4)CC3)nn2c1
testedTarget: Plasmodium berghei
INHIBITION, %: 28.95
--
compound: CC(C)NC(=O)N1CCC[C@H]1C(=O)NCCCc1cccc(F)c1
testedTarget: Plasmodium berghei
INHIBITION, %: -22.24
--
compound: CCc1nc2ccccc2c(=O)n1CC1(O)CCN(S(C)(=O)=O)CC1
testedTarget: Plasmodium berghei
INHIBITION, %: -37.18
--
compound: C=C(C)COc1ccccc1C(=O)N(C)C(C)c1c(C)n[nH]c1C (centres undefined)
testedTarget: Plasmodium berghei
INHIBITION, %: 29.81
--
compound: Cc1nc(C)n(CC2CN(Cc3ccccc3OC(C)C)CCO2)n1 (centres undefined)
testedTarget: Plasmodium berghei
INHIBITION, %: -3.06
--
compound: Cn1nnc2cc(C(=O)NS(=O)(=O)c3cccc(C#N)c3)ccc21
testedTarget: Plasmodium berghei
INHIBITION, %: -40.9
--
compound: CC(C)(C)n1cc(CNc2ccc(CNS(C)(=O)=O)cc2)cn1
testedTarget: Plasmodium berghei
INHIBITION, %: 38.49
--
compound: CC1(C)CN(C(=O)c2ccc3nncn3c2)CCS1
testedTarget: Plasmodium berghei
INHIBITION, %: -17.04
--
compound: COc1ccc(CCN2CC(NCc3ncc[nH]3)CC2=O)cc1 (centres undefined)
testedTarget: Plasmodium berghei
INHIBITION, %: 45.41
--
compound: CSc1ccsc1C(=O)NC(C)c1ccc2c(c1)CCC(=O)N2 (centres undefined)
testedTarget: Plasmodium berghei
INHIBITION, %: 0.48
